Please respond with reported pest or weed control at 140 g/ha for every item in the list.
test system: test plant species; assay: Post-emergent herbicidal activity test (greenhouse, foliar spray, visual growth reduction); type: in vivo; conditions: post-emergence, 336 h, lambsquarters (Chenopodium album), 14 Days After Application, 140 g ai/ha, read-out: Visual Growth Reduction (%) CHEAL

Consider the worked cases shown below.
{"SMILES_ENTRY": "C=Cc1cc(C(F)(F)F)cc(Cl)c1-c1ccc(Cl)c(C(=O)OC)n1", "ENDPOINT_RESULT": "95 to 100%"}
{"SMILES_ENTRY": "COC(=O)c1nc(-c2ccc(C(F)F)cc2OC)c(F)cc1Cl", "ENDPOINT_RESULT": "85 to 94%"}
{"SMILES_ENTRY": "COC(=O)c1nc(-c2ccc(Cl)c3ccccc23)c(F)cc1Cl", "ENDPOINT_RESULT": "0 to 29%"}
{"SMILES_ENTRY": "COc1c(Cl)cc(Cl)c(-c2nc(C(=O)OCc3ccccc3)c(Cl)cc2F)c1F", "ENDPOINT_RESULT": "75 to 84%"}
{"SMILES_ENTRY": "COC(=O)c1nc(-c2ccc(F)c3c2OC(F)(F)O3)c(F)cc1Cl", "ENDPOINT_RESULT": "30 to 44%"}

Record pest or weed control at 140 g/ha for all entries; do not skip any.
1. COC(=O)c1nc(-c2c(Cl)cc(C(F)(F)F)cc2[N+](=O)[O-])ccc1Cl
2. COC(=O)c1nc(-c2cccc(OC(F)(F)F)c2F)ccc1Cl
3. COC(=O)c1nc(-c2ccc(N)cc2F)c(F)cc1Cl
4. COC(=O)c1nc(-c2ccc3ncoc3c2)ccc1Cl
5. O=C(O)c1nc(-c2cccc3c2OC(F)(F)O3)ccc1Cl

# output
["30 to 44%", "0 to 29%", "0 to 29%", "30 to 44%", "0 to 29%"]
